Data origin, for the record: the supplement of paper PMC12632987

Biological target: GABARAP, O95166
Sequence (O95166 whole entry, the tested form may be a part): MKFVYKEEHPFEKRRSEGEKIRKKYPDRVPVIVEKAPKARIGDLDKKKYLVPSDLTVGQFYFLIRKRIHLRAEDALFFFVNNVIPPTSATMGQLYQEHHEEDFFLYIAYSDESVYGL
Assay: median log2 fold change of GCK-ALFA target abundance (FLAG IP / Myc IP barcode read proportion) (log2 ratio); each designed protein is fused to an ALFA-tag nanobody in HEK293 cells to bring the named protein to FLAG-tagged glucokinase (GCK); Myc marks an untargeted standard; higher = target protein stabilised (more abundant)
Conditions: target protein: 3xFLAG-MCP-GCK-ALFA reporter; HEK293 landing pad (RPLP)
Over roughly 4,500 sequences, “median log2 fold change of GCK-ALFA target abundance (FLAG IP / Myc IP barcode read proportion)” has its median near 0.078; the lowest 2% begin near -0.6. The sample as a whole holds a higher share of the lowest values than the screen did.
Listing of entries alongside the reported median log2 fold change.
# respond with the number and nothing more

Below are worked cases with known answers.
Binder | median log2 fold change
GBRAP_125_3101 (protein) MEEELLEALKRFALALGFSEEDAEEAAELAKKFSLKQTLIALLLAEGEEELAELVEKLTEEEAKEVLLKLDEYLKKNPNASKEEVLKKFKELVEEALKAS | -0.382
GBRAP_125_3103 (protein) EEEELLEALKALALALGFSEEDAEEAAELARRFSLKNTLIAILLAEGEEELAELVEKLTEEQAKEVLKKLAEWLKENPNASKEEVIKKLKELVEEALKKA | -1.16
GBRAP_57_6464 (protein) MSPLEKALEHFEKAIKLIEEGASLEEILEEVEKGLEELDHTLLLDILLLLDPSARSDLSREELRERLLELVRRYLEEKGREEALKALKLMAGQVEMALTE | 0.249

Quick check: median log2 fold change of GBRAP_160_3998 (protein) SEKLAALKAEIAAILAETLELARGEDAAERLAVVRVMGGQILLTLEESGIVSDEALAAVDAILDATAAEVAANPDLTDAELAALLDATLARINAVLEEHS ?
-0.533

Quick check: median log2 fold change of GBRAP_184_5066 (protein) SVAEETLEVRDLAEARAKLAALRAAVADHRGDLVVHLVLPEFDREIVALVLEGLAEIRAAGYARRVTVGLDADLTEEEADFAIELADAAGVNLTLALPEE ?
0.0273

Quick check: median log2 fold change of GBRAP_166_4889 (protein) STEEAIREIERLAEEAIANIAALTPEELLAVFIEMVEIVERAGATPELRAALAEAAARIVAAAVAAGRDWDEVESLALAAVGDDEELLDAVEATLAALRA ?
0.108

Quick check: median log2 fold change of GBRAP_139_3742 (protein) SEMEKKVEEAAKKVAELKDDPEAVADYLTETIASVDEETAEKIARAAVEVLADLPVEERLALDDLILDKLEEAGVDEDKITIVEAELNGGLARHAYAEEL ?
0.187

Quick check: median log2 fold change of GBRAP_160_3973 (protein) SEEVEELKKEIKELFDEAKKLIEGESYEERLTIIKVMVGDILLLADENPLISDEVEDKIDEIGDELIETIEKNPDLTDEEIKKLIDEAEEKILKTIDEAF ?
-0.605

Quick check: median log2 fold change of GBRAP_125_3102 (protein) EEEELLEALRRLALALGFSEEEAEEAARLAREFSLRQTLIALLLAEGEEELAELVEKLTEEQAKEVLRRLAEYLEAHPDATREEVVAKLRELVEEALAAA ?
-0.364
